Each item that follows carries a reported Fold change of IFNγ at 10 µg/ml vs baseline, mouse splenocytes.
- TEST_SYSTEM: T1, Avi/HisMsIL18BPd (recombinant mouse IL-18BP with Avi and poly-His tags) (mouse, biotinylated with BirA on the Avi tag in some assays)
- T1 chain: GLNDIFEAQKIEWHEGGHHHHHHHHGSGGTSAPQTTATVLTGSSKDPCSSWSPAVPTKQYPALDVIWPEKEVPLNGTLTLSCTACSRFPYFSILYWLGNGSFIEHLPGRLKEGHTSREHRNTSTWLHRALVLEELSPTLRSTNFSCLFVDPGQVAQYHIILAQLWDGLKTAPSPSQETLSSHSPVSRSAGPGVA
- TEST_NAME: cell-based or functional assay
Dear colleague, please return just the value in fold, with no unit written.

binder="anti-IL18BP antibody BP-11 (antibody, human IgG1, V domains shown) VH: QVQLQQSGAELAKPGASVKMSCKASGYTFTNYWMHWVKQRPGQGLEWIGHIDPSTGYTEYNQKFKDKATLTADKSSSTAYMQLSSLTSEDSAVYYCARGLGGLFGYWGQGTLVTVSA VL: DIQMTQSPSSLSASLGGKVTITCKASQDINKFIAWYQHKPGKGPRLLIHHTSTLMPGIPSRFSGSGSGREYSFSISNLEPEDIATYYCLQYDNLLWTFGGGTKLEIR" test_result=2.75

Entry anti-IL18BP antibody BP-10 (antibody, human IgG1, V domains shown) VH: QVQLQQPGAERVEPGASVRLSCKTSGYTFTNYWMHWVKQRPGQGLEWIGMIHPESGSTNNNEKFKSKATLTVDKSSSTAYMQLSSLTSEDSAVYYCARWDRGYFDYWGQGTTLTVSS VL: DIVMTQSHKFMSTSVGDRVSITCKASQDVRSTVGWYQQRPGQSPKLLIYWTSTRHTGVPDRFTGSGSGTDYTLTISSVQAEDLALYYCQQHYSTPYTFGGGTTLEIK , Fold change of IFNγ at 10 µg/ml vs baseline, mouse splenocytes reported as 2.85

Entry anti-IL18BP antibody BP-16 (antibody, human IgG1, V domains shown) VH: QVQLVQSGAEVKKPGASVKVSCKASGYTFTTYDINWVRQAPGQGLEWMGIIGSYGGATSYAQKFQGRVTMTRDTSTSTVYMELSSLRSEDTAVYYCATAEEELRFDYWGQGTLVTVSS VL: DIQMTQSPSSLSASVGDRVTITCRASQSISSYLNWYQQKPGKAPKLLIYKASTLHNGVPSRFSGSGSGTDFTLTISNLQPEDFATYYCQQAISFPLTFGGGTKVEIK , Fold change of IFNγ at 10 µg/ml vs baseline, mouse splenocytes reported as 11.9

meta.source: patent US20250333523A1
